Assay: Drug level in Sprague-Dawley rat brain at 10 mg/kg, po after 6 hrs
Assay type: ADME, organism-based
Set-up: dose 10 mg/kg, route oral
Details: read-out: Drug uptake

substance.smiles | unit.abbreviation | concentration at 6 h
Oc1ccc2c(Oc3ccc(OCCN4CCCCC4)cc3)c(-c3ccc(F)cc3)ccc2c1 | ng/g | 2690
Oc1ccc2c(Oc3ccc(OCCN4CCCCC4)cc3)c(-c3cccc(F)c3)ccc2c1 | ng/g | 730
Oc1ccc(-c2ccc3cc(O)ccc3c2Oc2ccc(OCCN3CCCCC3)cc2)cc1 | ng/g | 47
N#Cc1cccc(-c2ccc3cc(O)ccc3c2Oc2ccc(OCCN3CCCCC3)cc2)c1 | ng/g | 529

---

Molecular target: Estrogen receptor (Homo sapiens, UniProt P03372)
Sequence (P03372 whole entry): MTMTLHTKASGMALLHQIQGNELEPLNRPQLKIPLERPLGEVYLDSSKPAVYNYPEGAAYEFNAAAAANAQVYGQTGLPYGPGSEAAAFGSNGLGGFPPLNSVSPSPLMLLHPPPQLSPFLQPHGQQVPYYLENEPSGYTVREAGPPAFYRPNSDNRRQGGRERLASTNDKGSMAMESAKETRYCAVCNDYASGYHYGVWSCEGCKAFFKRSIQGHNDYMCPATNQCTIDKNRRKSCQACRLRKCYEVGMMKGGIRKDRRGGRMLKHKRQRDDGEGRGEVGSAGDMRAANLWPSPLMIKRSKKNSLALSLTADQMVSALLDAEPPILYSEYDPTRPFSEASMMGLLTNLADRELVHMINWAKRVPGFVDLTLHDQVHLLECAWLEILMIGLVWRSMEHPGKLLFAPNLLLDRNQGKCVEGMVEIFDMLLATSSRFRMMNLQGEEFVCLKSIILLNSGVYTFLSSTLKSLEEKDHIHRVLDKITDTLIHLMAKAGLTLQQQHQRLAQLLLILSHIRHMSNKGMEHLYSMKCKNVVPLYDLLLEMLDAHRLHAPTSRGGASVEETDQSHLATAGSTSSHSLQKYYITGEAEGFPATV
pKi: −log10 of the molar value.

substance.smiles | pKi
O=S1(=O)CCC(c2ccc3cc(O)ccc3c2Oc2ccc(OCCN3CCCCC3)cc2)CC1 | 8.72
Oc1ccc2c(Oc3ccc(OCCN4CCCCC4)cc3)c(-c3ccc(F)c(F)c3)ccc2c1 | 9.70
CN(C)C(=O)c1ccc(-c2ccc3cc(O)ccc3c2Oc2ccc(OCCN3CCCCC3)cc2)cc1 | 9.24
CC(C)c1ccc(-c2sc3cc(O)ccc3c2Oc2ccc(OCCN3CCCCC3)cc2)cc1 | 10.04
CS(=O)(=O)c1ccc(-c2sc3cc(O)ccc3c2Oc2ccc(OCCN3CCCCC3)cc2)cc1 | 9.20
Oc1ccc2c(Oc3ccc(OCCN4CCCCC4)cc3)c(-c3ccc(F)cc3)ccc2c1 | 9.62

---

# concentration at 6 h annotations
Test: Drug level in Sprague-Dawley rat brain at 10 mg/kg, po after 6 hrs
Assay type: ADME, organism-based
Set-up: dose 10 mg/kg, route oral
Conditions: read-out: Drug uptake

substance.smiles | concentration at 6 h, ng/g
CN(C)S(=O)(=O)c1ccc(-c2ccc3cc(O)ccc3c2Oc2ccc(OCCN3CCCCC3)cc2)cc1 | 46
Oc1cccc(-c2ccc3cc(O)ccc3c2Oc2ccc(OCCN3CCCCC3)cc2)c1 | 57
Oc1ccc2c(Oc3ccc(OCCN4CCCCC4)cc3)c(-c3ccc(F)c(F)c3)ccc2c1 | 3490
CCS(=O)(=O)c1ccc(-c2ccc3cc(O)ccc3c2Oc2ccc(OCCN3CCCCC3)cc2)cc1 | 43
CS(=O)(=O)c1ccc(-c2ccc3cc(O)ccc3c2Oc2ccc(OCCN3CCCCC3)cc2)cc1 | 103
